abundance fitness reference
B1: Intersectin-1, residues 1156 to 1213; numbered along this chain, Q15811 (parent)
chain: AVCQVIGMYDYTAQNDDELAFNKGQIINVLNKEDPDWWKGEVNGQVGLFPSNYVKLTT

Variants of: B1
Experiment: abundance fitness (aPCA) (normalised: wild type 0, dead -1); higher = more abundant; growth selection in yeast, the domain comes from the species named
Conditions: Homo sapiens
Just the number.

Study these solved cases before continuing.
1. AVCQFIGMYDYTAQNDDELAFNKGQIINVLNKEDPDWWKGEVNGQVGLFPSNYVKLTT | -0.772
2. AVCEVIGMYDYTAQNDDELAFNKGQIINVLNKEDPDWWKGEVNGQVGLFPSNYVKLTT | -0.629
3. AVCQVIGMYDYTAQNDDTLAFNKGQIINVLNKEDPDWWKGEVNGQVGLFPSNYVKLTT | -0.908
4. AVCQVLGMYDYTAQNDDELAFNKGQIINVLNKEDPDWWKGEVNGQVGLFPSNYVKLTT | -0.47
5. AVCQVIGMYDYTAQNDDELAFDKGQIINVLNKEDPDWWKGEVNGQVGLFPSNYVKLTT | 0.164

Please find the next variant below.
What does the data say about its abundance fitness? Entry: `AVCMVIGMYDYTAQNDDELAFNKGQIINVLNKEDPDWWKGEVNGQVGLFPSNYVKLTT`
-0.527
